Measured values drawn from the supplement of paper PMC4862054 for this set.

The entries below come with measured normalised response values attached.
# Test system: MCF-10A
# Experimental protocol: normalised response (% of control), CellTiter-Glo; higher = more viable cells (100 = DMSO, 0 = benzethonium chloride kill control)
# Condition notes: incubation time: 72 h
Answer format: numeric, % implied, no suffix.

C#Cc1cccc(Nc2ncnc3cc(OC)c(OCCCCCCC(=O)NO)cc23)c1 [CUDC-101] (10 nM) : 97.5
FC(F)c1nc2ccccc2n1-c1nc(N2CCOCC2)nc(N2CCOCC2)n1 [ZSTK474] (10 nM) : 103
C[C@@]1(C(=O)Nc2ccc(F)nc2)CCCN1c1nc(Nc2cc(C3CC3)n[nH]2)c2cccn2n1 (1000 nM) : 20.4

Data request: Fill in normalised response for record COc1ncc(-c2ccc3nccc(-c4ccnnc4)c3c2)cc1NS(=O)(=O)c1ccc(F)cc1F (0.1 nM)
Data returned: 120

Data request: Respond only with normalised response recorded for CS(=O)(=O)CCNCc1ccc(-c2ccc3ncnc(Nc4ccc(OCc5cccc(F)c5)c(Cl)c4)c3c2)o1 [Lapatinib] (0.1 nM)
Data returned: 98.4
